Record: compiled pIC50 on Type-1 angiotensin II receptor A (Rattus norvegicus, UniProt P25095) from multiple reports.
pIC50: −log10 of the molar value.
metric: pIC50

Check out these entries, answers already filled in.
Q: Report pIC50 for CCCc1nc2c(C)cc(-c3nc4ccccc4n3C)cc2n1Cc1ccc(-c2ccccc2S(=O)(=O)O)cc1 please.
Ans: 8.10

Q: What do you get for CCCc1ncc(/C=C2\C(=O)N(CC(=O)OC)C(=O)c3ccccc32)n1Cc1ccc(C(=O)OC)cc1 ?
Ans: 7.33

[a] CCc1nc2c(C)cc(NC(=NS(C)(=O)=O)N(C)C)cc2n1Cc1ccc(-c2ccccc2-c2nnn[nH]2)cc1
[b] CCCCc1nc(Cl)c(CC(=O)O)c(Cc2ccc(-c3ccccc3C(=O)O)cc2)n1
Q: Between the two listed entries a and b , which has its pIC50 at the higher number? Selection: enter the item's label.
Ans: a
